Ref: paper PMC5738440

Molecular target: UGT1A1 (Rattus norvegicus)
Sequence (Q64550 30-535): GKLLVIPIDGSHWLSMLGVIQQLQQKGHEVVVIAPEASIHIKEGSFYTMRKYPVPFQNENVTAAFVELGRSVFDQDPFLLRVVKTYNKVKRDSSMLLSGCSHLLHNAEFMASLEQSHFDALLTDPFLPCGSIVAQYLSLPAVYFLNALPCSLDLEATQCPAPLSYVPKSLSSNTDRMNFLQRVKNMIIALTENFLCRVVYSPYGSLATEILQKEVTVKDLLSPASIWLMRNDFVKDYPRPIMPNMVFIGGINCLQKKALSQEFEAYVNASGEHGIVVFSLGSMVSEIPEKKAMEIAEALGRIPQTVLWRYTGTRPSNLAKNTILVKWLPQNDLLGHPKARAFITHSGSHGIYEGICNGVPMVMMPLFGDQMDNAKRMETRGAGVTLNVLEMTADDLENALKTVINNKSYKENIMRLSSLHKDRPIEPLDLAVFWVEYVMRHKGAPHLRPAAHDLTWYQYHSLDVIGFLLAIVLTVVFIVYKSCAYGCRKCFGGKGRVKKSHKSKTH
Assay: UGT1A1 inhibition: bilirubin glucuronidation in rat liver microsomes (RLM), enzyme inhibition kinetics
Conditions: Ki value, bilirubin substrate, extract concentration based on emodin content
pKi: −log10 of the molar value.
readoutLabel: pKi

molecule: Cc1cc(O)c2c(c1)C(=O)c1cc(O)cc(O)c1C2=O [Emodin]
measuredNumber: 5.00
//
molecule: Cc1cc(O)c2c(c1)C(C1c3cc(C)cc(O)c3C(=O)c3c(O)cc(O)cc31)c1cc(O)cc(O)c1C2=O (stereo not drawn) [Cis-emodin dianthrones]
measuredNumber: 6.06
//
molecule: Cc1cc(O)c2c(c1)C(C1c3cc(C)cc(O)c3C(=O)c3c(OC4OC(CO)C(O)C(O)C4O)cc(O)cc31)c1cc(O)cc(O)c1C2=O (centres unmarked) [Polygonumnolide C2]
measuredNumber: 5.37
//
molecule: Cc1cc(O)c2c(c1)C(C1c3cc(C)cc(O)c3C(=O)c3c(OC4OC(CO)C(O)C(O)C4O)cc(O)cc31)c1cc(O)cc(O)c1C2=O (centres unmarked) [Polygonumnolide C3]
measuredNumber: 4.89
//
molecule: Cc1cc(O)c2c(c1)C(C1c3cc(C)cc(O)c3C(=O)c3c(O)cc(O)cc31)c1cc(O)cc(O)c1C2=O (stereo not drawn) [Trans-emodin dianthrones]
measuredNumber: 5.97
